src = ChEMBL document CHEMBL1201862

tested on: LOX IMVI; experiment: NCI tumour cell line growth inhibition, 48 h
Activity calls are given as the source filed them. Rule as the data show it: active = GI50 up to about 1.1 µM and inactive = higher.
# output must be one of true (1) for active, false (0) for inactive

CCOC(=O)c1ccc(/N=C2\SC(=S)N(c3ccc(F)cc3)\C2=N/c2ccc(C(=O)OCC)cc2)cc1 = false (0)
COc1cccc2nc3ccccc3nc12 = false (0)
COc1cc2c(c(OC)c1OC)-c1ccc(SC)c(=O)cc1[C@@H](NC(=O)c1ccc(C#N)cc1)CC2 = true (1)

What is the recorded call for this molecule in the test? CC1CN=C(N(C)C(=O)Nc2ccc(Cl)cc2)S1 (stereo not given)
false (0)

What is the recorded call for this molecule in the test? `CCOC(=O)/C(C(=O)Nc1ccc(Cl)cc1)=C(/N)N1CCOCC1`
false (0)

---

tested on: OVCAR-5; assay: NCI tumour cell line growth inhibition, 48 h
Activity calls are given as the source filed them. No stated cut-off is given here; in the data, active = GI50 up to about 1.1 µM and inactive = higher.
# output must be one of y for active, n for inactive

# count of solved cases: 6
Oc1ccc(/C=N/N=c2\[nH][nH]/c(=N\N=C\c3ccc(O)cc3O)c3ccccc23)c(O)c1 = y
CSc1nc(SC)c2c(C)cn(COCCOC(=O)c3ccccc3)c2n1 = n
CCOc1cccc2nc3cccc(C(=O)NCCN(C)C)c3nc12 = n
O=C1N/C(=N/N=C/C(O)C(O)C(O)CO)N/C1=C\c1ccco1 (centres undefined) = n
CC1OC(O)CC(N(C)C)C1O.CC1OC(O)CCC1O.CCC1CC(O)c2c(O)c3c(c(O)c2C1O)C(=O)c1cccc(O)c1C3=O (centres undefined) = y
CCC1OC2(C)CC(C#N)(C#N)C1(C#N)C(=N)O2 (centres undefined) = n

What is the recorded call for this molecule in the test? `Cc1cc(S(=O)(=O)Nc2nc3ccccc3nc2-c2cccc([N+](=O)[O-])c2)c(S)cc1Cl`
n

What is the recorded call for this molecule in the test? `CCOC(=O)/C(=C/c1ccc(OC)c(OC)c1)C(=O)c1ccccc1`
n

What is the recorded call for this molecule in the test? `COC(=O)[C@H](C)NC(=O)C1(CNC(=O)[C@H](C)NC(=O)OC(C)(C)C)Cc2ccccc2-c2ccccc2C1`
n

---

test system: K562; experiment: NCI tumour cell line growth inhibition, 48 h
The source made the active and inactive calls. No stated cut-off is given here; in the data, active = GI50 up to about 1.1 µM and inactive = higher.
Listed here are compounds together with their documented GI50.

Below: 5 compounds and their reported GI50.
Cc1ccc(C2(c3ccc(Cl)cc3)c3ccccc3C3=NCCN32)cc1 (stereo unspecified) = 3.74 µM (inactive)
COc1ccc(N[S+]([O-])C2CCCCC2)cc1 (stereo unspecified) = > 100 µM (inactive)
CC1=C(O)C(=O)[C@@H]2O[C@@H]2C1=O = 5.64 µM (inactive)
O=S(=O)(Nc1nc2ccccc2nc1Nc1ccc2ccccc2c1)c1ccccc1 = 22.5 µM (inactive)
C=CCOC(=O)C1=C(CCC[C@@H](C)O[Si](C)(C)C(C)(C)C)N=C(N)N2[C@H](CCO)CC[C@@H]12 = 6.34 µM (inactive)

// next entry
Requested field: GI50. Item: `CCOC(=O)COc1cc(-c2ccccc2F)nc2cc3c(cc12)OCO3`
38.1 µM (inactive)

---

system: PC-3; assay: NCI tumour cell line growth inhibition, 48 h
Activity calls are given as the source filed them. No stated cut-off is given here; in the data, active = GI50 up to about 1.1 µM and inactive = higher.
EXPERIMENTAL ENDPOINT: GI50

For PC-3, provide GI50 of CCOC(=O)/C(=C\c1cn(C(C)=O)c2ccccc12)P(C)(=O)OCC (configuration not stated) please.
52.5 µM (inactive)
